- TARGET: Growth hormone secretagogue receptor type 1 (Homo sapiens, UniProt Q92847)
- Sequence (Q92847 whole entry): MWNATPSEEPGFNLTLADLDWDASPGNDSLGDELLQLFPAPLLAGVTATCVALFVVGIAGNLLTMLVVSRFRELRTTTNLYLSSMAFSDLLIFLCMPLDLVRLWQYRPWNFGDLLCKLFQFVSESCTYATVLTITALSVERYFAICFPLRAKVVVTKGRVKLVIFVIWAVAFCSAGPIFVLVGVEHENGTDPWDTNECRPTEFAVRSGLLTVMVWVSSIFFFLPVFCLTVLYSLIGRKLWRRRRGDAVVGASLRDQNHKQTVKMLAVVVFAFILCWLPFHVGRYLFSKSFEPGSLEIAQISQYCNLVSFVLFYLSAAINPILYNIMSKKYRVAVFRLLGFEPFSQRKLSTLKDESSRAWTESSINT
- EXPERIMENT DESCRIPTION: Agonist activity at human recombinant GHSR1a expressed in HEK293F cells assessed as stimulation of [35S]GTP-gamma-S binding relative to ghrelin
OBSERVABLE: pEC50
Scale: negative log10 of molar concentration, which is what pEC50 denotes.

Measured pEC50 of Cc1ccccc1-c1nc2ccc(Oc3ccc(F)cc3)cc2c(=O)n1CC1CCCNC1 (stereo unspecified) : 8.19

---

- TARGET: Ghrelin receptor (Ovis aries, UniProt Q8MHZ5)
- Sequence (Q8MHZ5 whole entry): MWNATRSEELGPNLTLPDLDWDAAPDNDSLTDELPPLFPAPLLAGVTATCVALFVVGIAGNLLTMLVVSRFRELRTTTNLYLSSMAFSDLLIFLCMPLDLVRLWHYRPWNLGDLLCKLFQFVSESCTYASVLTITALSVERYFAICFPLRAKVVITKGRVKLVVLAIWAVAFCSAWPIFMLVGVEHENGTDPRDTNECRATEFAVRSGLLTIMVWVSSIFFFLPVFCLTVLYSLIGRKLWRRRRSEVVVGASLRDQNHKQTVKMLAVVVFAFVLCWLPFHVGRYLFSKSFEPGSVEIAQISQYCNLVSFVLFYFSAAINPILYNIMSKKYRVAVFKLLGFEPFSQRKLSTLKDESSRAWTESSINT
- EXPERIMENT DESCRIPTION: Displacement of [125I]ghrelin from ovine recombinant GHSR1a expressed in HEK293F cells after 6 hrs by scintillation proximity assay
OBSERVABLE: pKi
Scale: negative log10 of molar concentration, which is what pKi denotes.

These solved cases illustrate the format of a correct answer.
Cc1ccccc1-c1nc2ccc(Oc3ccc(F)cc3)cc2c(=O)n1CC1CCCNC1 (stereo not given) ... 9.05
CC(C)c1nc2ccc(-c3ccc(F)cc3)cc2c(=O)n1C[C@H]1CCCN(C(C)C)C1 ... 7.41
CC(C)c1nc2ccc(-c3ccc(Cl)cc3)cc2c(=O)n1C[C@H]1CCCN(C(C)C)C1 ... 7.35
Cc1ccccc1-c1nc2ccc(-c3ccc(Cl)cc3)cc2c(=O)n1CC1CCCN(CCC(F)(F)F)C1 (stereo not given) ... 6.60
CCN1CCC[C@@H](Cn2c(-c3ccccc3C)nc3ccc(-c4ccc(Cl)cc4)cc3c2=O)C1 ... 7.15

Measured pKi of Cc1nc2ccc(Oc3ccc(F)cc3)cc2c(=O)n1C[C@H]1CCCN(C(C)C)C1 : 7.77

Measured pKi of CCN1CCC[C@@H](Cn2c(C(C)C)nc3ccc(-c4ccc(F)cc4)cc3c2=O)C1 : 5.24

Measured pKi of Cc1ccccc1-c1nc2ccc(-c3ccc(Cl)cc3)cc2c(=O)n1CC1CN(C(C)C)CCO1 (stereo not given) : 6.72

Measured pKi of Cc1ccccc1-c1nc2ccc(Oc3ccc(F)cc3)cc2c(=O)n1CC1CCCN(C(C)C)C1 (stereo not given) : 9.33

---

- EXPERIMENT DESCRIPTION: Bioavailability in Wistar rat plasma at 3 mg/kg, po
- Type: ADME, organism-based
OBSERVABLE: bioavailability (%)
Kindly answer with a numeric value in %, unit omitted.

These solved cases illustrate the format of a correct answer.
Cc1nc2ccc(Oc3ccc(F)cc3)cc2c(=O)n1C[C@H]1CCCN(C(C)C)C1 ... 85
CC(C)c1nc2ccc(-c3ccc(F)cc3)cc2c(=O)n1C[C@H]1CCCN(C(C)C)C1 ... 69

# input for lookup
Measured bioavailability of CCN1CCCC(Cn2c(-c3ccccc3C)nc3ccc(-c4ccc(Cl)cc4)cc3c2=O)C1.Cl (stereo not drawn) : 29

---

- EXPERIMENT DESCRIPTION: Cmax in Wistar rat plasma at 0.7 mg/kg, iv
- Format: ADME, organism-based
- Parameters: dose 0.7 mg/kg, route intravenous
OBSERVABLE: Cmax (ng/mL)
Kindly answer with a numeric value in ng/mL, unit omitted.

Measured Cmax of CC(C)c1nc2ccc(-c3ccc(F)cc3)cc2c(=O)n1C[C@H]1CCCN(C(C)C)C1 : 100

---

- EXPERIMENT DESCRIPTION: AUC (0-t) in Wistar rat plasma at 0.7 mg/kg, iv
- Type: ADME, organism-based
- Design: dose 0.7 mg/kg, route intravenous
OBSERVABLE: AUC(0-t) (ng·h/mL)
Kindly answer with a numeric value in ng·h/mL, unit omitted.

Measured AUC(0-t) of CC(C)c1nc2ccc(-c3ccc(F)cc3)cc2c(=O)n1C[C@H]1CCCN(C(C)C)C1 : 580
